# Assay: Water content by Karl Fisher analysis on storage (Example 3)
# Assay type: physicochemical
# Condition notes: 1 month, 25° C./60% RH
Measured Moisture, listed per entry for reference.
Numeric only. Scale: % w/w

CN1CCC23c4c5ccc(O)c4OC2C(OC2OC(C(=O)O)C(O)C(O)C2O)C=CC3C1C5.CN1CCC23c4c5ccc(O)c4OC2C(OC2OC(C(=O)O)C(O)C(O)C2O)C=CC3C1C5.O=S(=O)(O)O (stereo not shown) [Morphine-6-glucuronide sulphate] | 4.28
CN1CCC23c4c5ccc(O)c4OC2C(OC2OC(C(=O)O)C(O)C(O)C2O)C=CC3C1C5.CN1CCC23c4c5ccc(O)c4OC2C(OC2OC(C(=O)O)C(O)C(O)C2O)C=CC3C1C5.O=C(O)C=CC(=O)O (stereo not shown) [Morphine-6-glucuronide maleate] | 7.53

What the record says about CN1CCC23c4c5ccc(O)c4OC2C(OC2OC(C(=O)O)C(O)C(O)C2O)C=CC3C1C5.O=P(O)(O)O (stereo not shown) [Morphine-6-glucuronide phosphate] : Moisture is 3.91

For this molecule ( CN1CC[C@]23c4c5ccc(O)c4O[C@H]2[C@@H](O[C@@H]2O[C@H](C(=O)O)[C@@H](O)[C@H](O)[C@H]2O)C=C[C@H]3[C@H]1C5 [Morphine-6-glucuronide base, morphine-6-β-D-glucuronide] ), measured Moisture is 9.00

Lab book: Moisture of CN1CCC23c4c5ccc(O)c4OC2C(OC2OC(C(=O)O)C(O)C(O)C2O)C=CC3C1C5.CN1CCC23c4c5ccc(O)c4OC2C(OC2OC(C(=O)O)C(O)C(O)C2O)C=CC3C1C5.O=C(O)C=CC(=O)O (stereo not shown) [Morphine-6-glucuronide fumarate] noted as 7.26

Lab note: measured Moisture of Br.CN1CC[C@]23c4c5ccc(O)c4O[C@H]2[C@@H](O[C@@H]2O[C@H](C(=O)O)[C@@H](O)[C@H](O)[C@H]2O)C=C[C@H]3[C@H]1C5 [Morphine-6-glucuronide hydrobromide] was 2.56

Note to self: Moisture recorded for CN1CC[C@]23c4c5ccc(O)c4O[C@H]2[C@@H](O[C@@H]2O[C@H](C(=O)O)[C@@H](O)[C@H](O)[C@H]2O)C=C[C@H]3[C@H]1C5.Cl [Morphine-6-glucuronide hydrochloride] was 5.10
